Please go through the items and note down their TGI.
system: NCI-H23 lung; experiment: NCI tumour cell line growth inhibition, 48 h

## Input What TGI value was documented for this compound, `Clc1ccc(CCN[C@H]2CCCC[C@H]2N2CCCC2)cc1Cl` ?
## Output 58.8 µM

## Input What TGI value was documented for this compound, `c1ccc(CNCCN(CCNCc2ccccn2)Cc2ccc3ccccc3c2)nc1` ?
## Output 6.19 µM

## Input What TGI value was documented for this compound, NC1=NN(c2ccccc2)C(=O)C1C(=O)C(=O)Nc1ccc(Cl)c(Cl)c1 (stereo not drawn) ?
## Output > 100 µM

## Input What TGI value was documented for this compound, COc1ccccc1/C=C/C1=NN(c2cccc(S(=O)(=O)O)c2)C2(C1)C(Cl)C(=O)N2c1nc2ccccc2s1 (stereo not drawn) ?
## Output > 100 µM

## Input What TGI value was documented for this compound, `Cc1cc(Nc2cc(N3CCN(C)CC3)nc(/C=C/c3ccccc3)n2)n[nH]1` ?
## Output > 5.23 µM

## Input What TGI value was documented for this compound, Nc1ncnc2c1ncn2C1CCC(CP(=O)(O)O)C1 (stereo not drawn) ?
## Output > 100 µM

## Input What TGI value was documented for this compound, `CC(C)=CCC[C@@H](C)C1=C(O)C(Nc2ccccc2Cl)=C(C)C(=O)C1=O` ?
## Output 55.1 µM

## Input What TGI value was documented for this compound, `Clc1cccc(-c2nnc(-c3nn(-c4ccccc4)c4nc5ccccc5nc34)o2)c1` ?
## Output > 100 µM

## Input What TGI value was documented for this compound, O=C1CC(CC(=O)c2ccc(Br)cc2)C(=O)/C1=C(/O)c1ccc(Br)cc1 (stereo not drawn) ?
## Output > 100 µM

## Input What TGI value was documented for this compound, `O=C1O/C(=C/c2ccccc2)C(c2ccccc2)=C1O` ?
## Output 44.7 µM

## Input What TGI value was documented for this compound, `Cc1c(N=C/C=C/c2ccccc2)c(=O)n(-c2ccccc2)n1C` ?
## Output 69.8 µM

## Input What TGI value was documented for this compound, Cc1cc(=O)oc2cc(OCC(O)COC(C)C)ccc12 (stereo not drawn) ?
## Output > 100 µM

## Input What TGI value was documented for this compound, `O=C(N/N=C/c1cc(Br)cc(Br)c1[O-])c1ccccc1O.O=C(N/N=C/c1cc(Br)cc(Br)c1[O-])c1ccccc1O.[Zn+2]` ?
## Output 3.17 µM

## Input What TGI value was documented for this compound, `CC1=CC(C)(C)NN1C1=NS(=O)(=O)c2ccccc2N1C` ?
## Output > 100 µM

## Input What TGI value was documented for this compound, `C=C(C(=O)OC)[C@@H]1C[C@@H](OC(C)=O)C2=C[C@H](C[C@@]3(C)O[C@@H]3C3=CC(C)=C(O3)[C@H]1OC(C)=O)OC2=O` ?
## Output 35.5 µM

## Input What TGI value was documented for this compound, `CC(=O)O[C@H]1C(=O)[C@@]2(C)[C@H]([C@H](OC(=O)c3ccccc3)[C@]3(O)C[C@H](OC(=O)[C@H](O)[C@@H](NC(=O)c4ccco4)c4ccccc4)C(C)=C1C3(C)C)[C@]1(OC(C)=O)CO[C@@H]1C[C@@H]2O` ?
## Output > 12.5 µM

## Input What TGI value was documented for this compound, CN1CCN(C(=O)COc2ccc(/C=C3\CC4C5CC=C6CC(Cl)CCC6(C)C5CCC4(C)C3=O)cc2)CC1 (stereo not drawn) ?
## Output > 100 µM

## Input What TGI value was documented for this compound, `CN(/N=C/c1ccnc2ccccc12)c1c([N+](=O)[O-])cc([N+](=O)[O-])cc1[N+](=O)[O-]` ?
## Output > 100 µM
